Each recorded value in this set is attributed to PubChem BioAssay (NCI).

tested on: MDA-MB-231 breast; assay: NCI tumour cell line growth inhibition, 48 h
EXPERIMENTAL_READOUT: TGI (µM)
The reply should contain only the number, in µM.

Worked cases, TGI given:
• CS(=O)(=O)OCCN(CCOS(C)(=O)=O)c1ccc(C=Nc2ccc(-c3csc(Cc4ccccc4)n3)cc2)c(Cl)c1 = 75.6
• COc1ccc(-n2nc(C)c3c(Nc4ccc(NC(=O)Nc5cccc(C(F)(F)F)c5)cc4)ncnc32)cc1 = 3.14
• O=C(c1ccc(Cl)cc1Cl)N1CCN(C(=O)c2ccc(Cl)cc2Cl)C1=S = 38.7

Field: next compound
Problem: Check MDA-MB-231 breast data and give TGI for CC(C)CC1c2[nH]c3ccccc3c2C[C@H]2C(=O)NC(Cc3c[nH]c4ccccc34)C(=O)N12 (some centres not stated) .
Solution: 49.9
